Reference for the values: the METLIN SMRT retention time set (Domingo-Almenara et al. 2019)

# measurement_protocol: gradient 5% acetonitrile 3 min, to 50% in 2 min, to 85% in 15 min, held 3 min, 100 µL/min
# applied_conditions: column: Zorbax Extend-C18 2.1 x 50 mm; eluents: water / acetonitrile, 0.1% formic acid
Is RP-LC retention time at least 800 s? Then met. If not, not met.

>>> class_label("CCCc1cc(N2CCN(C(=O)c3ccc(OC)nc3)CC2)nc2nnc(CC)n12")
"not met"
>>> class_label("COc1ccc(-c2noc(Cn3cnc4c(cnn4-c4ccc(F)cc4)c3=O)n2)cc1OC")
"met"
>>> class_label("O=C1C(c2cccnc2)N(Cc2ccc3c(c2)OCO3)C(=O)CN1c1ccccc1 (stereo not given)")
"not met"

---

# measurement_protocol: gradient 5% acetonitrile 3 min, to 50% in 2 min, to 85% in 15 min, held 3 min, 100 µL/min
# applied_conditions: column: Zorbax Extend-C18 2.1 x 50 mm; eluents: water / acetonitrile, 0.1% formic acid
Is RP-LC retention time at least 900 s? Then Y. If not, N.

>>> class_label("O=C(NC1CCCCC1)C1CCN(S(=O)(=O)c2ccc(-c3noc(C4CC4)n3)cc2)CC1")
"Y"
>>> class_label("COc1ccccc1C(=O)N1CCC(COc2ccc(C(=O)NC(C)C)cc2)CC1")
"N"
>>> class_label("OC(CN1CCN(c2cccc(Cl)c2)CC1)c1ccc2c(c1)OCO2 (centres undefined)")
"N"
>>> class_label("COCC(=O)N(CC(=O)N1CCc2sccc2C1COc1ccccc1OC)C(C)C (centres undefined)")
"N"
>>> class_label("CCN(Cc1ccccc1)S(=O)(=O)c1c(C)nn(-c2ccc(-c3ccccc3)nn2)c1C")
"Y"
>>> class_label("CC(C)c1c(C2CCN(C(=O)c3cc4ccccc4[nH]3)CC2)noc1N")
"N"
>>> class_label("CCOC(=O)c1ccc2nc(C)cc(NC(=O)c3ccco3)c2c1")
"N"
>>> class_label("COc1cccc(Cn2c(=O)c3sccc3n(Cc3nc(-c4ccccc4OC)no3)c2=O)c1")
"Y"
>>> class_label("C(=C/c1nc2ccccc2o1)/c1ccc2c(c1)OCO2")
"Y"
>>> class_label("Cc1ccc(NC(=O)N2C[C@@H](F)C[C@H]2C(=O)N2CCc3ccccc3C2)c(Cl)c1")
"N"
>>> class_label("COCCN1C(=O)[C@H]2CN(Cc3cc(OC)cc(OC)c3)C[C@H]2C1=O")
"N"
>>> class_label("CCc1ccc(S(=O)(=O)N2CCC(C(=O)NCCc3csc(-c4cccs4)n3)CC2)cc1")
"Y"
>>> class_label("Cc1ccc(CNC(=O)c2cccc(-c3cnc(N4CCCC4)nc3)c2)o1")
"N"
>>> class_label("COc1ccc(C(=O)c2c(N)c(C#N)c3ccccn23)cc1")
"N"
>>> class_label("CCc1ccc(N2C=NS(=O)(=O)c3cccnc32)cc1")
"N"
>>> class_label("CCc1noc(-c2nc(-c3ccc(F)c(F)c3)no2)n1")
"Y"
>>> class_label("CN(CC(=O)Nc1c2c(nc3c1CCC3)CCCC2)Cc1ccccc1")
"N"

---

# measurement_protocol: gradient 5% acetonitrile 3 min, to 50% in 2 min, to 85% in 15 min, held 3 min, 100 µL/min
# applied_conditions: column: Zorbax Extend-C18 2.1 x 50 mm; eluents: water / acetonitrile, 0.1% formic acid
endpoint_name: RP-LC retention time (s)

>>> recorded_value("CCC(=O)N1CCc2cc(C(=O)N3CCN(C(=O)c4ccco4)CC3)ccc21")
662
>>> recorded_value("CCCn1cc(CCNC(=O)c2ccnn2CC)c2cccnc21")
678
>>> recorded_value("CC(=O)Nc1cccc2c(C(=O)N3CCN(c4ccccc4Cl)CC3)ccnc12")
946
>>> recorded_value("CCn1cc(CNC(=O)c2cc(-c3ccc4c(c3)OCO4)nc3ccccc23)c(C)n1")
818
>>> recorded_value("Cc1cc2c(c(=O)n(-c3ccccc3)c(=O)n2CC(=O)Nc2cccc(C#N)c2)n1C")
784
>>> recorded_value("CC(C)OCCCNC(=O)Cn1c2ccccc2c2cnn(C)c(=O)c21")
745
>>> recorded_value("COc1cccc(-c2nnc(SCC(=O)NCc3cccnc3)n2-c2ccccc2)c1")
573
>>> recorded_value("COc1ccc(OC)c(NC(=O)CSc2ccc(N3CCCC(C(=O)NC4CC4)C3)nn2)c1 (stereo not given)")
672
>>> recorded_value("Cc1ccc(C)c(NC(=O)COc2nc(C)nc3ccccc23)c1")
754
>>> recorded_value("NC(=O)C1CCN(C(=O)c2cncc(NS(=O)(=O)c3ccc(F)cc3)c2)CC1")
606
>>> recorded_value("Cc1noc(C)c1CCC(=O)N1CCC2(CC1)CC(CCOCC1CC1)CCO2 (stereo not given)")
831
>>> recorded_value("COc1ccc(CNC(=O)c2ccc3c(c2)N(C)C(=O)c2ccccc2O3)cc1")
863
>>> recorded_value("COc1cccc(C2OC(c3cccc(Cn4cccn4)c3)=NN2C(C)=O)c1OC(C)=O (stereo not given)")
832
>>> recorded_value("COCCn1cc(CCNC(=O)Nc2ccccc2Cl)c2cccnc21")
752
>>> recorded_value("CCCn1cnc2cc(CNC(=O)c3cccc(C(F)(F)F)c3)ccc21")
690
>>> recorded_value("Cc1cc(C)cc(NS(=O)(=O)c2cc(-c3nc(C)cs3)cs2)c1")
1010
>>> recorded_value("Cc1cccc(Oc2nccnc2N2CCC(C(=O)NC(C)c3ccc(C)c(C)c3)CC2)c1 (stereo not given)")
1130
>>> recorded_value("O=C(c1ccc(F)cc1)N1CCN(c2cc(-c3cccs3)[nH]n2)CC1")
764
>>> recorded_value("Cc1ccc(-c2nc3sc(N4CCCCC4)nn3c2NC(=O)C2CCCO2)cc1 (stereo not given)")
901
>>> recorded_value("Cc1nc(-c2cnccn2)n(CC(=O)Nc2ccccc2)c(=O)c1C")
704
>>> recorded_value("CCc1ccc(C2=C(C)C(N3CCCN(C(=O)C4CCOC4)CC3)=NS2(=O)=O)cc1 (stereo not given)")
749
>>> recorded_value("CCc1ccc(C(=O)c2cnc3cc4c(cc3c2N2CCN(CC)CC2)OCO4)cc1")
608
>>> recorded_value("Cc1ccc(N2C(=O)CN(S(=O)(=O)c3ccccc3)CC2(C)C(=O)NC2CCCC2)cc1 (stereo not given)")
917
>>> recorded_value("CCCn1nc(-n2cnnc2)c(NC(=O)c2cc(OC)cc(OC)c2)c1C")
682
>>> recorded_value("Cc1ccc(-n2cc(C(=O)NCCCOC(C)C)nn2)cc1")
810

---

# measurement_protocol: gradient 5% acetonitrile 3 min, to 50% in 2 min, to 85% in 15 min, held 3 min, 100 µL/min
# applied_conditions: column: Zorbax Extend-C18 2.1 x 50 mm; eluents: water / acetonitrile, 0.1% formic acid
Known RP-LC retention time of a selection of compounds
endpoint_name: RP-LC retention time

>>> recorded_value("C[C@@H](Cc1ccc(OCC(=O)O)cc1)NC[C@@H](O)c1cccc(Cl)c1")
"704 s"
>>> recorded_value("O=C(NCc1cc(F)ccc1F)C1CCc2nc(N3CCOCC3)ncc2C1 (centres undefined)")
"715 s"
>>> recorded_value("CCN(CC)C(=O)c1cc(=O)n(CC(=O)NC2CCCC2)c2ccccc12")
"685 s"
>>> recorded_value("CCc1nnc(NS(=O)(=O)c2ccc(NC(=O)c3ccco3)cc2)s1")
"680 s"

---

# measurement_protocol: gradient 5% acetonitrile 3 min, to 50% in 2 min, to 85% in 15 min, held 3 min, 100 µL/min
# applied_conditions: column: Zorbax Extend-C18 2.1 x 50 mm; eluents: water / acetonitrile, 0.1% formic acid
endpoint_name: RP-LC retention time (s)

>>> recorded_value("COc1cc(NC(=O)c2nc(C)oc2C)cc(OC)c1")
750
>>> recorded_value("CC(C)CNC(=O)Cc1nnc(-c2cccc(F)c2)o1")
744
>>> recorded_value("O=C(NCCc1ccc(Cl)cc1)C(=O)Nc1ccon1")
772
>>> recorded_value("O=C(O)c1cn(-c2cccc(Br)c2)nn1")
723
>>> recorded_value("Cc1cc2c(c(=O)n(-c3ccccc3)c(=O)n2CC(=O)Nc2ccc(Cl)cc2)n1C")
885
>>> recorded_value("O=C(NCc1ccc2c(c1)OCO2)C(=O)c1cn(CC(=O)N2CCOCC2)c2ccccc12")
804
>>> recorded_value("COCC(=O)Nc1ccc2c(c1)CCC(=O)N2C")
613
>>> recorded_value("O=C(Cn1nc(Cc2cccnc2)c2ccccc2c1=O)N1CCN(C(=O)c2ccco2)CC1")
578
>>> recorded_value("COc1ccc(C(=O)N(Cc2cc(OC)c(OC)c(OC)c2)CC2CCCO2)cc1 (configuration not stated)")
810
>>> recorded_value("CCNS(=O)(=O)c1cccnc1Nc1ccc(F)c(Cl)c1")
1040
>>> recorded_value("Cc1ccc(S(=O)(=O)N2CCC(CN3CCCC(C)C3)CC2)cc1Cl (configuration not stated)")
683
>>> recorded_value("CC(C)Cn1c(CC2CCN(C(=O)c3n[nH]c4ccccc34)C2)nc2cccnc21 (configuration not stated)")
627
